# system_under_test: h P2X2/3 (Homo sapiens, UniProt P56373+Q9UBL9)
# Construct: host or cells: cells not described; same protocol as the P2X3 assay
# Sequence (P56373 1-397): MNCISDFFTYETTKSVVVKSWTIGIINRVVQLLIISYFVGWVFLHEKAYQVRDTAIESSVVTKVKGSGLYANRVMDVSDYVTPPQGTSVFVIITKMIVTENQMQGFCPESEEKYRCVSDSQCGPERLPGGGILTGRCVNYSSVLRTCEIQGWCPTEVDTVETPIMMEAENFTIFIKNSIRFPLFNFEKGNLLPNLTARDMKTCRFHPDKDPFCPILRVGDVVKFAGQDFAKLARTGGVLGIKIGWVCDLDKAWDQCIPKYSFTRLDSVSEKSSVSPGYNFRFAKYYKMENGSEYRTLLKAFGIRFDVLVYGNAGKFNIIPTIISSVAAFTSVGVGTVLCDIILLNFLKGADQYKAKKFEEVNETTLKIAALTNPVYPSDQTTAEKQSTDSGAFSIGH
# Sequence (Q9UBL9 1-471): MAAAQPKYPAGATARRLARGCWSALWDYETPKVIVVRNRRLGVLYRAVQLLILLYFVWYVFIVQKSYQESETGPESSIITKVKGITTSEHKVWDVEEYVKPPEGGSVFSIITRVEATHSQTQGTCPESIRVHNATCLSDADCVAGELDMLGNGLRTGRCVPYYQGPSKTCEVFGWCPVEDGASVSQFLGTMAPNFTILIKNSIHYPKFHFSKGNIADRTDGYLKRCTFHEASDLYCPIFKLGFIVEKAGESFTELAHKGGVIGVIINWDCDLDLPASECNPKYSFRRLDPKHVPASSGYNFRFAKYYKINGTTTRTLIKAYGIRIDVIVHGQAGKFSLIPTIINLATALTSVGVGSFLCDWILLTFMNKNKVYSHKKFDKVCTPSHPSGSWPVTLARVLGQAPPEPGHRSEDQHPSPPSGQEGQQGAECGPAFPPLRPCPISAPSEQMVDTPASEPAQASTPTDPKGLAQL
# measurement_description: In vitro electrophysiology assay for P2X2/3 (same protocol, 10 μM ATP agonist)
# Format: cell-based
# assay_setup: Table 3, mean current seven seconds after agonist, read-out: h P2X2/3 (pIC50 range of activity) (converted)

compound: C[C@@H](Nc1ncnc2c(OC3CCNC3=O)cc(-c3ccc(F)cc3)cc12)c1cnc(C(F)(F)F)nc1 (stereo partly shown) [Example 34]
IC50: 0.316 to 3.16 µM
//
compound: COC(=O)C1(NC(=O)COc2cc(-c3ccc(F)cc3)cc3c(NCc4ccc(C)nn4)ncnc23)CC1 [Example 42]
IC50: 3.16 to 31.6 µM
//
compound: COC(=O)C1(NC(=O)COc2cc(-c3ccc(F)cc3)cc3c(N[C@H](C)c4cnc(C(F)(F)F)nc4)ncnc23)CC1 [Example 43]
IC50: 3.16 to 31.6 µM
//
compound: Cc1ccc(CNc2ncnc3c(OCC(F)F)cc(-c4ccc(F)cc4)cc23)nn1 [Example 1]
IC50: 3.16 to 31.6 µM
//
compound: COC(=O)N1CCC(Oc2cc(-c3ccc(F)cc3)cc3c(NCc4ccc(C)nn4)ncnc23)C1 (stereo not shown) [Example 68]
IC50: 3.16 to 31.6 µM
//
compound: Cc1nc([C@@H](C)Nc2ncnc3c(S(=O)(=O)N(C)C)cc(-c4ccc(F)cc4)cc23)no1 (stereo in doubt) [Example 15]
IC50: 0.316 to 3.16 µM
//
compound: CNS(=O)(=O)c1cc(-c2ccc(F)cc2)cc2c(N[C@H](C)c3ccc(C)nn3)ncnc12 [Example 21]
IC50: 3.16 to 31.6 µM
